# measurement-target: T1, RSV postfusion F (postF), subtype A (respiratory syncytial virus subtype A, UniProt P03420 26-513)
# T1 construct: also called Postfusion subtype A; F deltaFP
# experiment-summary: BLI

- binder: "ADI-19495 (antibody, V domains shown) VH: QVQLQESGPGLVKPSETLSLTCTVSGGSISSYYWSWIRQPPGKGLEWIGYIYTSGSTNYNPSLKSRVTISVDTSKNQFSLKLSSVTAADTAVYYCARVGSYYDLQHWGQGTLVTVSS VL: DIQLTQSPSSVSASVGDRVTITCRASQGISSWLAWYQQKPGKAPKLLIYAASSLQSGVPSRFSGSGSGTDFTLTISSLQPEDFATYYCQQANSFPLTFGGGTKVEIK"
  binding result: "no binding"
- binder: "ADI-24817 (antibody, V domains shown, full-length IgG) VH: EVQLVESGGGLVKPGGSLRLSCAASGFTFSSYSMNWVRQAPGKGLEWVSSISSSSSYIYYADSVKGRFTISRDNAKNSLYLQMNSLRAEDTAVYYCARDSMALLYSNYWFDPWGQGTLVTVSS VL: QSVVTQPPSVSGAPGQRVTISCTGSSSNIGAGYDVHWYQQLPGTAPKLLIYGNSNRPSGVPDRFSGSKSGTSASLAITGLQAEDEADYYCQSYDSSLSGSVFGGGTKLTVL"
  binding result: "no binding"
- binder: "ADI-19435 (antibody, V domains shown, full-length IgG) VH: QVQLQESGPGLVKPSQTLSLTCTVSGGSISSGSYYWSWIRQPAGKGLEWIGRIYTSGSTNYNPSLKSRVTISVDTSKNQFSLKLSSVTAADTAVYYCAREGRGGAFDIWGQGTLVTVSS VL: SYELTQPPSVSVSPGQTARITCSADALPKQYAYWYQQKPGQAPVLVIYKDSERPSGIPERFSGSSSGTTVTLTISGVQAEDEADYYCQSADSSGTYVVFGGGTQLTVL"
  binding result: "no binding"
